# assay.notes: lymphocyte viability (LCV) assay
# Type: cell-based, murine
# cond: mouse, splenocytes, 1 ug/well; percentage of positive LCV control (no compound)
viability strictly less than 10% = condition met. Otherwise condition not met.

Please review the entries below; each comes with its answer.
compound="C#CC(O)C=CCCCCCCCCCCCCCC(C)C (centres unmarked) [SP10101]" label_value="condition met"
compound="C#CC(O)C=CCCCCCCCCCC=CCCCCCC (centres unmarked) [SP10099]" label_value="condition not met"
compound="C#CC(O)C=CCCCCCCCCCCCCCCC (centres unmarked) [SP10098]" label_value="condition not met"
compound="C#CC(O)C=CCCCCCCCCCCC(C)CCCC (centres unmarked) [SP10100]" label_value="condition not met"

Next:
Input: Identify whether the compound C#CC(O)C=CCCCCCCCCCC=CCCCCC(C)C (centres unmarked) [SP10102] records viability below 10%.
Output: condition not met

###

# assay.notes: lymphocyte viability (LCV) assay
# Format: cell-based, murine
# cond: mouse, splenocytes, 0.01 ug/well; percentage of positive LCV control (no compound)
result.type: viability (%)
Give your result in % as a bare value.

In the examples that follow, each entry is paired with its recorded viability.
molecule="C#CC(O)C=CCCCCCCCCCCCCCC(C)C (centres unmarked)" scale_unit=% measured_result=82
molecule="C#CC(O)C=CCCCCCCCCCC=CCCCCC(C)C (centres unmarked)" scale_unit=% measured_result=67
molecule="C#CC(O)C=CCCCCCCCCCCC(C)CCCC (centres unmarked)" scale_unit=% measured_result=78

Input: Find the recorded viability belonging to C#CC(O)C=CCCCCCCCCCCCCCCC (centres unmarked) and report it.
Output: 80

Input: Please answer likewise for C#CC(O)C=CCCCCCCCCCC=CCCCCCC (centres unmarked)
Output: 67
